- Tested on: Fusarium nivale (var. majus)
- measurement_description: Fusarium nivale (var. majus) test (wheat)/protective
- Assay type: in vivo
- condition_label: 1000 ppm active compound, protective, evaluation 5 days after inoculation

# compound, assayed_target, efficacy in %
rows = [
    ("CC(=O)Nc1cc(-c2c(-c3ccsc3)nn3c2CCCC3)ccn1 [Example 58]", "Fusarium nivale (var. majus)", "100%"),
    ("O=C(Cc1ccccc1)Nc1cc(-c2c(-c3ccc(F)cc3)nn3c2CCCC3)ccn1 [Example 34]", "Fusarium nivale (var. majus)", "100%"),
    ("CC(C)CC(=O)Nc1cc(-c2c(-c3ccccc3)nn3c2CCCC3)ccn1 [Example 31]", "Fusarium nivale (var. majus)", "100%"),
    ("O=C(Nc1cc(-c2c(-c3ccsc3)nn3c2CCCC3)ccn1)C1CC1 [Example 65]", "Fusarium nivale (var. majus)", "100%"),
    ("CC(C)C(=O)Nc1cc(-c2c(-c3ccc(F)cc3)nn3c2CCC3C)ccn1 (stereo not drawn) [Example 77]", "Fusarium nivale (var. majus)", "100%"),
    ("CCC(=O)Nc1cc(-c2c(-c3ccc(F)cc3)nn3c2CCC3C)ccn1 (stereo not drawn) [Example 76]", "Fusarium nivale (var. majus)", "100%"),
    ("CCC(=O)Nc1cc(-c2c(-c3ccsc3)nn3c2CCCC3)ccn1 [Example 59]", "Fusarium nivale (var. majus)", "100%"),
    ("COCC(=O)Nc1cc(-c2c(-c3ccccc3)nn3c2CCCC3)ccn1 [Example 23]", "Fusarium nivale (var. majus)", "86%"),
    ("CC(C)(O)C(=O)Nc1cc(-c2c(-c3ccccc3)nn3c2CCCC3)ccn1 [Example 50]", "Fusarium nivale (var. majus)", "83%"),
]

----------
- measurement_description: log P determination by HPLC retention times (alkan-2-one calibration)
- condition_label: log P, values marked [b] in Table 1

# smiles_entry, chromatographic logP
rows = [
    ("Nc1cc(-c2c(-c3ccc(F)cc3)nn3c2CCCC3)ccn1", 2.05),
    ("CCC(=O)Nc1cc(-c2c(-c3ccc(F)cc3)nn3c2CCCC3)ccn1", 2.58),
    ("CC(C)Nc1cc(-c2c(-c3ccccc3)nn3c2CCC3)ccn1", 2.69),
    ("COC(=O)Nc1cc(-c2c(-c3ccc(F)cc3)nn3c2CCCC3)ccn1", 2.56),
    ("Fc1ccc(-c2nn3c(c2-c2ccncc2)CCCC3)cc1", 2.43),
    ("Fc1cc(-c2c(-c3ccccc3)nn3c2CCC3)ccn1", 2.53),
]

----------
- Tested on: Pyricularia oryzae
- condition_label: in vivo
test_readout: efficacy in % (%)

# smiles_entry, value_measured
records = [
    ("CC(C)CC(=O)Nc1cc(-c2c(-c3ccccc3)nn3c2CCCC3)ccn1", 98),
    ("CC(=O)Nc1cc(-c2c(-c3ccccc3)nn3c2CCCC3)ccn1", 92),
    ("CC(C)C(=O)Nc1cc(-c2c(-c3ccc(F)cc3)nn3c2CCCC3)ccn1", 90),
    ("O=C(Nc1cc(-c2c(-c3ccc(F)cc3)nn3c2CCCC3)ccn1)C1CC1", 92),
    ("CC(C)C(=O)Nc1cc(-c2c(-c3ccccc3)nn3c2CCCC3)ccn1", 95),
]

----------
- Test system: Septoria tritici
- measurement_description: Septoria tritici test (wheat)/protective
- Format: in vivo
- condition_label: in vivo

# smiles_entry, efficacy in %
measured = [
    ("CCC(=O)Nc1cc(-c2c(-c3ccc(F)cc3)nn3c2CCC3)ccn1", "90%"),
    ("CC(=O)Nc1cc(-c2c(-c3ccc(F)cc3)nn3c2CCCC3)ccn1", "100%"),
    ("O=C(Nc1cc(-c2c(-c3ccc(F)cc3)nn3c2CCCC3)ccn1)c1ccsc1", "100%"),
    ("CC(=O)Nc1cc(-c2c(-c3ccccc3)nn3c2CCCC3)ccn1", "100%"),
    ("COCC(=O)Nc1cc(-c2c(-c3ccc(F)cc3)nn3c2CCCC3)ccn1", "86%"),
    ("CC(C)(O)C(=O)Nc1cc(-c2c(-c3ccccc3)nn3c2CCCC3)ccn1", "90%"),
    ("CC(C)CC(=O)Nc1cc(-c2c(-c3ccc(F)cc3)nn3c2CCCC3)ccn1", "100%"),
    ("C[C@H](O)C(=O)Nc1cc(-c2c(-c3ccccc3)nn3c2CCCC3)ccn1", "86%"),
    ("O=C(Cc1ccccc1)Nc1cc(-c2c(-c3ccc(F)cc3)nn3c2CCCC3)ccn1", "93%"),
]
